- Measurement Notes: Oral bioavailability after oral dosing in rat
- Assay Setup: in vivo, Sprague Dawley rats, IV 1 mg/kg, PO 5 mg/kg, IV vehicle 5% DMSO + 30% PEG400 + 65% water, PO vehicle 0.5% methyl cellulose in water
Recorded Endpoint: bioavailability (%)

- CCOc1cc(-c2ccc(F)cc2)c(C2CC2)cc1CN1CCC2(CC1)CN(c1ccc(S(=O)(=O)O)cc1)C(=O)O2 [Compound 1]: 4.6
- CCOc1cc(-c2ccc(F)cc2)c(C2CC2)cc1CN1CCC2(CC1)CC(=O)N(c1ccc(S(=O)(=O)O)cc1)C2 [Compound 2]: 2.1
- CCOc1cc(-c2ccc(F)cn2)c(C2CC2)cc1CN1CCC2(CC1)CN(c1ccc(S(=O)(=O)O)cc1)C(=O)O2 [Compound 3]: 1.2
